src = the supplement of paper PMC10065799

- TEST TARGET: Jak2 (UniProt O60674)
- Sequence (O60674 whole entry, looked up): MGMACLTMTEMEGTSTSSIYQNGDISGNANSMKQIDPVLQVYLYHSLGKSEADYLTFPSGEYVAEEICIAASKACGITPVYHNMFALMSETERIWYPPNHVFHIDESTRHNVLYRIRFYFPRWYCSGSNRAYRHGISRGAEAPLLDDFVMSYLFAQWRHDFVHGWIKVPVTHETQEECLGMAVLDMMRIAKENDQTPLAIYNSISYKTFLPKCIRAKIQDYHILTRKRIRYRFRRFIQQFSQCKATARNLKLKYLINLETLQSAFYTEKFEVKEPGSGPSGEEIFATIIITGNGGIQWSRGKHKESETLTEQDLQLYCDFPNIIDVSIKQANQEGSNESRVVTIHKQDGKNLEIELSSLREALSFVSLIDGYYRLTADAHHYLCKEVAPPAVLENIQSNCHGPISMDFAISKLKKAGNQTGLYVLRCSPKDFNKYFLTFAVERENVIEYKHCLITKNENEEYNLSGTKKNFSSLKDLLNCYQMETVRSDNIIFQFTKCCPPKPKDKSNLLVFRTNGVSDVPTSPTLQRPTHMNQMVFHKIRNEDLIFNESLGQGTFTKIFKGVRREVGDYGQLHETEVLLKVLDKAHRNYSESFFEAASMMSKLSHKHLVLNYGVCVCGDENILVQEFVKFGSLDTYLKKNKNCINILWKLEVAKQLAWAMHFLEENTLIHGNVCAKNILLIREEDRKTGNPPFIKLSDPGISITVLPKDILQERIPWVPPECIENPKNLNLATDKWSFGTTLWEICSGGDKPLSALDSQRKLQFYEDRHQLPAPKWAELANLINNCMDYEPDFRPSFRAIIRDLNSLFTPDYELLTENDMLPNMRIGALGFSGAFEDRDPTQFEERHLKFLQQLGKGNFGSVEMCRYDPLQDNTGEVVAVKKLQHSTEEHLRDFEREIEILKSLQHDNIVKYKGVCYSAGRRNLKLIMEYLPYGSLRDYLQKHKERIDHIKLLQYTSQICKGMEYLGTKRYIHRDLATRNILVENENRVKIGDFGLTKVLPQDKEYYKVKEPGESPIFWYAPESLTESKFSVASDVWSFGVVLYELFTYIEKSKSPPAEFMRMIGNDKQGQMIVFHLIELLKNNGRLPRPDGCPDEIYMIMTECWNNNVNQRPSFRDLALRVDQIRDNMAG
- ASSAY TEXT: phosphorylation enrichment, bacterial display (enrichment ratio); higher = better substrate or ligand; peptides without Tyr show the background;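 note: 11-residue human phosphosite peptides and single-mutation variants displayed on the E. coli surface, counted by deep sequencing, each peptide's frequency after selection divided by its frequency in the unselected input library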;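 note: frequency after pTyr selection over input frequency; kinase dosed for 20-30% of maximal phosphorylation in three min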
Output schema: class label derived from phosphorylation enrichment. Mapping: bottom bin (below 0.7), middle bin (0.7 to below 1), top bin (1 or more)

[
  {
    "BIOPOLYMER SEQUENCE": "HVLEEYKPKQG [SAXO2_Y37_P34L]",
    "TEST TARGET": "Jak2 (UniProt O60674)",
    "DISCRETE LABEL": "top bin"
  },
  {
    "BIOPOLYMER SEQUENCE": "FNNPAYFVLEG [INPPL1_Y986_YF]",
    "TEST TARGET": "Jak2 (UniProt O60674)",
    "DISCRETE LABEL": "top bin"
  },
  {
    "BIOPOLYMER SEQUENCE": "ANNQRYAFMPL [TMEM87B_Y460]",
    "TEST TARGET": "Jak2 (UniProt O60674)",
    "DISCRETE LABEL": "bottom bin"
  },
  {
    "BIOPOLYMER SEQUENCE": "PPAPRCHHSAV [LZTR1_Y119_Y119C]",
    "TEST TARGET": "Jak2 (UniProt O60674)",
    "DISCRETE LABEL": "top bin"
  },
  {
    "BIOPOLYMER SEQUENCE": "FTNRSYDLDFD [MYC_Y12_N11S_YF]",
    "TEST TARGET": "Jak2 (UniProt O60674)",
    "DISCRETE LABEL": "middle bin"
  },
  {
    "BIOPOLYMER SEQUENCE": "LASLIYNFVLF [AQP6_Y231]",
    "TEST TARGET": "Jak2 (UniProt O60674)",
    "DISCRETE LABEL": "top bin"
  },
  {
    "BIOPOLYMER SEQUENCE": "GGYNNYGYGSD [HNRNPH3_Y159_N163S]",
    "TEST TARGET": "Jak2 (UniProt O60674)",
    "DISCRETE LABEL": "bottom bin"
  },
  {
    "BIOPOLYMER SEQUENCE": "WHHTFYNELCV [ACTC1_Y93_R97C]",
    "TEST TARGET": "Jak2 (UniProt O60674)",
    "DISCRETE LABEL": "top bin"
  }
]

Query: Which band does NTGDDYDLYGG [PTPN11_Y63_Y62D] fall in?
Reply: middle bin

Query: Which band does MIHSAYALGGL [CPS1_Y590_R587H] fall in?
Reply: bottom bin

Query: Which band does MPLTKYLKRIK [CNGB3_Y200_E199K] fall in?
Reply: bottom bin

Query: Which band does PQEVMYAQLDH [KIR3DL2_Y398_T397M] fall in?
Reply: top bin

Query: Which band does EFLKNYFTDKA [DSG2_Y775_R773K] fall in?
Reply: middle bin

Query: Which band does KVDKEYEVHVR [GHR_Y226_R229H] fall in?
Reply: middle bin

Query: Which band does VNKIYHPDFIV [LIG3_Y768_Y768H] fall in?
Reply: middle bin

Query: Which band does KSEMSYIDGEK [SORBS1_Y485] fall in?
Reply: middle bin

Query: Which band does PLKALYLQQRP [ATM_Y2969] fall in?
Reply: top bin

Query: Which band does NNIDFYKKTTN [FGFR2_Y657_YF] fall in?
Reply: middle bin

---

- TEST TARGET: Fyn (UniProt P06241)
- Sequence (P06241 whole entry, looked up): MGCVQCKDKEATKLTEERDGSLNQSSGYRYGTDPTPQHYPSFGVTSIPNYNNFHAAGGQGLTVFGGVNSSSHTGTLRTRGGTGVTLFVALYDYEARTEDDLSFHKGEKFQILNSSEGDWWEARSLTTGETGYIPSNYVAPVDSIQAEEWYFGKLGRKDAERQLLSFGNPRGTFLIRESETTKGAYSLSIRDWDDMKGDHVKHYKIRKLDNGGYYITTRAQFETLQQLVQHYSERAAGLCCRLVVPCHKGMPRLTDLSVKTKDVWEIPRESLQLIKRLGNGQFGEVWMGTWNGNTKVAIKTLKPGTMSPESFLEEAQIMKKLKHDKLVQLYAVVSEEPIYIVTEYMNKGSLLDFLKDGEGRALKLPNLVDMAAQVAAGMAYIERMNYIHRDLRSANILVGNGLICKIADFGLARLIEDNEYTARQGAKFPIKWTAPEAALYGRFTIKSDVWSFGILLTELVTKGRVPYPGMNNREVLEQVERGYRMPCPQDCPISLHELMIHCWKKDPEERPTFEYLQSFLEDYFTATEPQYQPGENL
- ASSAY TEXT: phosphorylation enrichment, bacterial display (enrichment ratio); higher = better substrate or ligand; peptides without Tyr show the background
Could you label it satisfied if measured phosphorylation enrichment is 0.5 or higher, and not satisfied otherwise?

Some solved entries appear below for comparison.
[
  {
    "BIOPOLYMER SEQUENCE": "RREWYYEVIIV [BACE1_Y260]",
    "DISCRETE LABEL": "satisfied"
  },
  {
    "BIOPOLYMER SEQUENCE": "FGVVGYLAIMF [RNF175_Y155]",
    "DISCRETE LABEL": "satisfied"
  },
  {
    "BIOPOLYMER SEQUENCE": "EDASEYFENYI [PARP4_Y214]",
    "DISCRETE LABEL": "satisfied"
  },
  {
    "BIOPOLYMER SEQUENCE": "RPPFTYATLIH [FOXP3_Y342_R347H]",
    "DISCRETE LABEL": "satisfied"
  },
  {
    "BIOPOLYMER SEQUENCE": "ILTYKYLQKPM [KIT_Y547]",
    "DISCRETE LABEL": "not satisfied"
  },
  {
    "BIOPOLYMER SEQUENCE": "KTDKKYLMIEE [BAG3_Y451]",
    "DISCRETE LABEL": "not satisfied"
  },
  {
    "BIOPOLYMER SEQUENCE": "KEDPEYKKKFR [FAM161A_Y278_E273K]",
    "DISCRETE LABEL": "not satisfied"
  },
  {
    "BIOPOLYMER SEQUENCE": "EPNSRYTCKLE [USH2A_Y3745_Y3747C]",
    "DISCRETE LABEL": "satisfied"
  },
  {
    "BIOPOLYMER SEQUENCE": "KDDEKYLDVIR [MTM1_Y260]",
    "DISCRETE LABEL": "not satisfied"
  },
  {
    "BIOPOLYMER SEQUENCE": "ECKASYPGKIT [PRSS3_Y232]",
    "DISCRETE LABEL": "not satisfied"
  }
]

Query: Is the recorded value of phosphorylation enrichment equal to or greater than 0.5 for this sequence? LQTYRYHGHSM [PDHA1_Y289]
Reply: not satisfied

Query: Is the recorded value of phosphorylation enrichment equal to or greater than 0.5 for this sequence? GDAMLYFPSVS [GPR143_Y177_A173D_YF]
Reply: satisfied

Query: Is the recorded value of phosphorylation enrichment equal to or greater than 0.5 for this sequence? RAILNYIASKY [GSTA3_Y74]
Reply: satisfied

Query: Is the recorded value of phosphorylation enrichment equal to or greater than 0.5 for this sequence? AFGGGYGGVLT [KRT19_Y65_YF]
Reply: not satisfied

Query: Is the recorded value of phosphorylation enrichment equal to or greater than 0.5 for this sequence? FPKDVYVDSKD [NDUFAF4_Y69_L65P]
Reply: not satisfied

Query: Is the recorded value of phosphorylation enrichment equal to or greater than 0.5 for this sequence? KRFRIYHLATS [BRCA2_Y3009_YF]
Reply: not satisfied

Query: Is the recorded value of phosphorylation enrichment equal to or greater than 0.5 for this sequence? SYCYRYRCAPR [SUMF1_Y344_A348P]
Reply: not satisfied

---

- System: c-Src
- ASSAY TEXT: phosphorylation enrichment, bacterial display (enrichment ratio); higher = better substrate or ligand; peptides without Tyr show the background
Can you tell me phosphorylation enrichment for the items I'm about to list?
Give bare numbers.

[
  {
    "BIOPOLYMER SEQUENCE": "CHSDDYVHISI [TSC1_Y406_L411I]",
    "TEST TARGET": "c-Src",
    "phosphorylation enrichment": 0.524
  },
  {
    "BIOPOLYMER SEQUENCE": "PLRPDYQEPSR [DDR2_Y481]",
    "TEST TARGET": "c-Src",
    "phosphorylation enrichment": 0.533
  },
  {
    "BIOPOLYMER SEQUENCE": "VMSGPYELKAL [IL1B_Y140]",
    "TEST TARGET": "c-Src",
    "phosphorylation enrichment": 0.873
  },
  {
    "BIOPOLYMER SEQUENCE": "PTKNDYWAMPA [WWOX_Y287_L291P]",
    "TEST TARGET": "c-Src",
    "phosphorylation enrichment": 0.952
  }
]

Quick one: give me phosphorylation enrichment for each item below, same order please.
1. GGGGSYNNFGN [HNRNPA1_Y312_D314N]
2. HGQVNYEEFVQ [CALM2_Y139_D134H]
3. SDFSRYARTSI [TERT_Y949_S948R_YF]
4. ASTHIYQIMNH [ITK_Y588_V587I]
5. PGVDRYSLGTS [C5orf42_Y1451]
6. DEENFYQGSME [ASCC1_Y36_D34N]
7. YGSSSYRGAGG [RPA2_Y14_G15R]

Reply:
0.325
0.803
0.442
4.36
0.737
0.733
0.412

Quick one: give me phosphorylation enrichment for each item below, same order please.
1. KKHIPHREHKS [CSNK1G2_Y206_Y206H]
2. TLARLYHPDST [LRIG1_Y1029]
3. HTKKNYGNSSV [HDX_Y197_A193T]
4. VTRLWYPVCFG [ITK_Y336_R335W]
5. TLQSMSGCDVG [HLA-B_Y123_Y123S]
6. FGCTFYNQAIM [MCCC2_Y196_R193C]
7. FISVGYVDDTL [HLA-B_Y51_Q56L]

Reply:
[1.53, 0.302, 0.472, 0.403, 0.406, 0.47, 0.557]

Quick one: give me phosphorylation enrichment for each item below, same order please.
1. FTHSDYQFGQR [PKP2_Y166_S169G_YF]
2. PPLMLYNPTTF [EGFR_Y270_YF]
3. SQGRQYQELPR [KCNH2_Y1009_R1005Q]
4. ESLRPYDVMDV [KCNQ2_Y562]
5. EFITRYIASLK [PSMA7_Y110_YF]

Reply:
1: 0.457; 2: 0.863; 3: 0.423; 4: 0.719; 5: 0.435

Quick one: give me phosphorylation enrichment for each item below, same order please.
1. GEHSIYCTVNN [CD55_Y266]
2. NTADFYDLFGG [PTPN11_Y63_G60A_YF]
3. IFGVSYDEFRF [CFTR_Y512_YF]
4. IRKTEYPFSSE [ATP2C1_Y452_A450T]
5. LYYYSYLLKNH [PTEN_Y180_V175L]

Reply:
[4.66, 4.45, 2.32, 0.428, 1.06]

Quick one: give me phosphorylation enrichment for each item below, same order please.
1. KRELRYMHSRV [ABCD1_Y281_G277R]
2. RRIHSYRGHVW [VHL_Y112_L116V]
3. DASAVYLRDFQ [PLCG2_Y242_H244R]
4. KDAGDYKYKAK [LRIT3_Y326_C328Y]
5. SAPPSHEETVA [LITAF_Y23_Y23H]
6. SVTCAYSPALN [TP53_Y126_T125A]
7. SDYSSYARTSI [TERT_Y949]
8. SSNPEYLSASD [INSR_Y999]

Reply:
1. 0.313
2. 1.04
3. 0.693
4. 0.319
5. 0.404
6. 0.583
7. 0.897
8. 0.458

Quick one: give me phosphorylation enrichment for each item below, same order please.
1. QPDFLYDHIQP [TRRAP_Y862]
2. SLVVPYEPPEV [TP53_Y220_V216L]
3. KLSCSYSHWSA [C4BPA_Y470]
4. GDLTDYLMKIL [ACTA1_Y190_R185G]
5. RIGRKYKRVRF [F8_Y442_K444R]
6. QYPDVYAREEV [CRX_Y67]

Reply:
1. 5.86
2. 0.547
3. 0.672
4. 0.323
5. 3.73
6. 3.8

Quick one: give me phosphorylation enrichment for each item below, same order please.
1. GSERDYTFEEL [EIF2S2_Y174_YF]
2. YTGDIYSSSNL [LZTR1_Y141_N143S]
3. ANNQRYAFMPL [TMEM87B_Y460]

Reply:
1. 0.566
2. 4.97
3. 0.485

Quick one: give me phosphorylation enrichment for each item below, same order please.
1. YEEDSYVKRSQ [RET_Y905]
2. GFAGKYIAMVM [CYP19A1_Y441_C437Y_YF]
3. PSAELYSFALP [PDGFRB_Y716_N718Y_YF]
4. NIRKKYFRAIL [CHD7_Y1217_Q1214R_YF]

Reply:
[0.544, 0.599, 7.32, 0.504]
